These data points were gathered from BigSolDB 2.1.

# cond: in methyl acetate, 288.15 K
readout-kind: solubility (mole fraction)
The reply should be a number, written without any unit.

[ask] # query: solubility (mole fraction) of entry O=C1CCCC(=O)C1
[reply] 0.0146

---

# cond: in ethyl butyrate, 298.15 K
readout-kind: solubility (mole fraction)

[ask] # query: solubility (mole fraction) of entry O=C1CCCC(=O)C1
[reply] 0.0125

---

# cond: in ethyl formate, 308.15 K
readout-kind: solubility (mole fraction)
The reply should be a number, written without any unit.

[ask] # query: solubility (mole fraction) of entry O=C1CCCC(=O)C1
[reply] 0.0287

---

# cond: in n-propyl acetate, 303.15 K
readout-kind: solubility (mole fraction)

[ask] # query: solubility (mole fraction) of entry O=C1CCCC(=O)C1
[reply] 0.0214
